Test system: metastin receptors
assay-name: Measurement of agonist activity by assaying changes in intracellular calcium ion level (FLIPR, Fluo-4 NW)
Assay type: cell-based, human
measurement-parameters: specific activity of the EC50 of a test compound based on the EC50 of Metastin (45-54), metastin receptor expression CHO cells
*1 amine or outer side, *2 acyl side, *3 side chain or, on linkers, in order; H or OH if unused. Where a SMILES comes first, the peptide text is derived from it. [ ]: non-standard residue; d: D form. X1 = CC(C)C[C@H](CCCN[*:1])C(=O)[*:2]; Arg(Me) = CNC(=N)NCCC[C@H](N)C(=O)O; Dap(CONH2) = NC(=O)NC[C@H](N)C(=O)O; Hyp = O=C(O)[C@@H]1C[C@@H](O)CN1; Cha = N[C@@H](CC1CCCCC1)C(=O)O
measurement-name: Specific Activity

- compound: "CNC(=N)NCCC[C@H](NC(=O)[C@H](CC(C)C)NC(=O)[C@H](C)NC(=O)[C@H](CC1CCCCC1)NC(=O)[C@@H](NC(=O)[C@H](CC(N)=O)NC(=O)[C@@H]1C[C@@H](O)CN1C(=O)[C@@H](Cc1ccc(O)cc1)NC(C)=O)[C@@H](C)O)C(=O)N[C@@H](Cc1c[nH]c2ccccc12)C(N)=O [Compound No. 823] (Ac-[dY][Hyp]NT[Cha]AL[Arg(Me)]W-NH2)"
  target-desc: "metastin receptors"
  reported-value: 0.5
- compound: "CNC(=N)NCCC[C@H](NC(=O)[C@@H](CCCNC(=O)[C@H](CC1CCCCC1)NC(=O)[C@@H](NC(=O)[C@H](CNC(N)=O)NC(=O)[C@@H]1C[C@@H](O)CN1C(=O)[C@@H](Cc1ccc(O)cc1)NC(C)=O)[C@@H](C)O)CC(C)C)C(=O)N[C@@H](Cc1c[nH]c2ccccc12)C(N)=O [Compound No. 957] (Ac-[dY][Hyp][Dap(CONH2)]T[Cha][X1][Arg(Me)]W-NH2)"
  target-desc: "metastin receptors"
  reported-value: 1.1

* * *

Tested on: metastin receptors
assay-name: Measurement of agonist activity by assaying changes in intracellular calcium ion level (FLIPR, Fluo-4 NW)
Format: cell-based, human
measurement-parameters: specific activity of the EC50 of a test compound based on the EC50 of Metastin (45-54), metastin receptor expression CHO cells
*1 amine or outer side, *2 acyl side, *3 side chain or, on linkers, in order; H or OH if unused. Where a SMILES comes first, the peptide text is derived from it. [ ]: non-standard residue; d: D form. Glyψ(E-CHCH)Leu = CC(C)C[C@H](/C=C/CN[*:1])C(=O)[*:2]; Arg(Me) = CNC(=N)NCCC[C@H](N)C(=O)O; Dap(CONH2) = NC(=O)NC[C@H](N)C(=O)O; Hyp = O=C(O)[C@@H]1C[C@@H](O)CN1; Cha = N[C@@H](CC1CCCCC1)C(=O)O; Nva = CCC[C@H](N)C(=O)O
Specific Activity values, listed per item
measurement-name: Specific Activity

- compound: "CCC[C@H](NC(=O)CNC(=O)[C@H](CC1CCCCC1)NC(=O)[C@@H](NC(=O)[C@H](CC(N)=O)NC(=O)[C@@H]1C[C@@H](O)CN1C(=O)[C@@H](Cc1ccc(O)cc1)NC(C)=O)[C@@H](C)O)C(=O)N[C@@H](CCCNC(=N)NC)C(=O)N[C@@H](Cc1c[nH]c2ccccc12)C(N)=O [Compound No. 921] (Ac-[dY][Hyp]NT[Cha]G[Nva][Arg(Me)]W-NH2)"
  measurement-name: "Specific Activity"
  reported-value: 0.5
- compound: "CNC(=N)NCCC[C@H](NC(=O)[C@@H](/C=C/CNC(=O)[C@H](CC1CCCCC1)NC(=O)[C@@H](NC(=O)[C@H](CNC(N)=O)NC(=O)[C@H](CCC(=O)O)NC(=O)[C@@H](Cc1ccc(O)cc1)NC(C)=O)[C@@H](C)O)CC(C)C)C(=O)N[C@@H](Cc1c[nH]c2ccccc12)C(N)=O [Compound No. 905] (Ac-[dY]E[Dap(CONH2)]T[Cha][Glyψ(E-CHCH)Leu][Arg(Me)]W-NH2)"
  measurement-name: "Specific Activity"
  reported-value: 0.5
- compound: "CNC(=N)NCCC[C@H](NC(=O)[C@H](CC(C)C)NC(=O)CNC(=O)[C@H](Cc1ccccc1)NC(=O)[C@@H](NC(=O)[C@H](CNC(N)=O)NC(=O)[C@@H]1C[C@@H](O)CN1C(=O)[C@@H](Cc1ccc(O)cc1)NC(C)=O)[C@@H](C)O)C(=O)N[C@@H](Cc1c[nH]c2ccccc12)C(N)=O [Compound No. 885] (Ac-[dY][Hyp][Dap(CONH2)]TFGL[Arg(Me)]W-NH2)"
  measurement-name: "Specific Activity"
  reported-value: 0.5
